Test system: M. tuberculosis H37Rv
assay-overview: MIC against replicating M. tuberculosis H37Rv, microplate Alamar blue assay (MABA)
Type: cell-based
run-conditions: Mycobacterium tuberculosis, H37RV, against M. tuberculosis H37Rv; Tables 1-3; read-out: MIC
# log10 MIC per entry
endpoint-label: log10 MIC (log10 of the value in µg/mL)

>>> measured_result("CCOC(=O)NC(=O)c1ccsc1NC(=O)c1ccc(C(=O)N2CCCCC2)cc1 [Compound 23j]")
-1.70
>>> measured_result("CCCNC(=O)c1ccc(C(=O)Nc2sccc2C(=O)NC(=O)OCC)cc1 [Compound 23a]")
-0.70
>>> measured_result("CCOC(=O)NC(=O)c1ccsc1NC(=O)c1coc(C(=O)N2CCCCC2)c1 [Compound 24k]")
-0.43
>>> measured_result("CCOC(=O)NC(=O)c1ccsc1NC(=O)c1ccc(C(=O)N2CCOCC2)cc1 [Compound 23o]")
0.22
>>> measured_result("CCOC(=O)NC(=O)c1ccsc1NC(=O)c1ccc(C(=O)Nc2ccccc2)cc1 [Compound 23g]")
-0.92
>>> measured_result("CCOC(=O)NC(=O)c1ccsc1NC(=O)c1cccc(C(=O)N2CCCCC2)c1 [Compound 24a]")
0.57
>>> measured_result("COC(=O)NC(=O)c1ccsc1NC(=O)c1ccc(C(=O)N2CCCCC2)cc1 [Compound 25a]")
-0.72
>>> measured_result("CCOC(=O)NC(=O)c1ccsc1NC(=O)c1ccc(C(=O)N2CCCCC2)cc1F [Compound 24b]")
-0.92
>>> measured_result("CCOC(=O)NC(=O)c1ccsc1NC(=O)c1cc(C(=O)N2CCCCC2)c[nH]1 [Compound 24l]")
0.25
>>> measured_result("CCOC(=O)NC(=O)c1ccsc1NC(=O)c1ccc(C(=O)N2CCCCC2)s1 [Compound 24j]")
-0.85
>>> measured_result("CCOC(=O)NC(=O)c1ccsc1NC(=O)c1ccc(C(=O)N2CCC(OC)CC2)cc1 [Compound 23m]")
-0.92
>>> measured_result("CCOC(=O)NC(=O)c1ccsc1NC(=O)c1ccc(C(=O)N2CCCCCC2)cc1 [Compound 23k]")
-0.66
>>> measured_result("CCOC(=O)NC(=O)c1ccsc1NC(=O)c1ccc(C(=O)N2CCCCC2)cc1Cl [Compound 24c]")
-0.35

----------
Tested on: M. tuberculosis H37Rv
assay-overview: MIC against replicating M. tuberculosis H37Rv, microplate Alamar blue assay (MABA)
Assay type: cell-based
run-conditions: Mycobacterium tuberculosis, H37RV, against M. tuberculosis H37Rv; Tables 1-3; read-out: MIC
# MIC per entry
endpoint-label: MIC (µg/mL)

>>> measured_result("CCOC(=O)NC(=O)c1ccsc1NC(=O)c1ccc2cc(C(=O)N3CCCCC3)ccc2c1 [Compound 24h]")
3.13
>>> measured_result("Cc1ccnc(NC(=O)c2ccsc2NC(=O)c2ccc(C(=O)N3CCCCC3)c(F)c2)n1 [Compound 25k]")
0.47
>>> measured_result("CCOC(=O)NC(=O)c1ccsc1NC(=O)c1ccc(C(=O)N2CCC(C)CC2)cc1 [Compound 23l]")
0.03

----------
Tested on: M. tuberculosis H37Rv
assay-overview: MIC against replicating M. tuberculosis H37Rv, microplate Alamar blue assay (MABA)
Type: cell-based
run-conditions: Mycobacterium tuberculosis, H37RV, against M. tuberculosis H37Rv; Tables 1-3; read-out: MIC
endpoint-label: MIC

>>> measured_result("Cc1cnc(NC(=O)c2ccsc2NC(=O)c2ccc(C(=O)N3CCCCC3)cc2)s1 [Compound 25i]")
"> 32 µg/mL"
>>> measured_result("Cc1cccc(NC(=O)c2ccsc2NC(=O)c2ccc(C(=O)N3CCCCC3)cc2)n1 [Compound 25n]")
"> 32 µg/mL"
>>> measured_result("Cc1ccc2sc(NC(=O)c3ccsc3NC(=O)c3ccc(C(=O)N4CCCCC4)cc3)nc2c1 [Compound 25q]")
"> 32 µg/mL"

----------
endpoint-label: melting point

>>> measured_result("COC(=O)N1CCN(C(=O)c2ccsc2NC(=O)c2ccc(C(=O)N3CCCCC3)cc2)CC1 [Compound 25g]")
"113 to 114 °C"
>>> measured_result("CCOC(=O)NC(=O)c1ccsc1NC(=O)c1ccc(C(=O)N2CCCCC2)cc1Br [Compound 24d]")
"144 to 145 °C"
>>> measured_result("CCOC(=O)NC(=O)c1ccsc1NC(=O)c1coc(C(=O)N2CCCCC2)c1 [Compound 24k]")
"157 to 158 °C"
>>> measured_result("CCNC(=O)NC(=O)c1ccsc1NC(=O)c1ccc(C(=O)N2CCCCC2)cc1 [Compound 25c]")
"223 to 224 °C"
>>> measured_result("Cc1cnc(NC(=O)c2ccsc2NC(=O)c2ccc(C(=O)N3CCCCC3)cc2)cn1 [Compound 25m]")
"177 to 179 °C"
>>> measured_result("CCOC(=O)NC(=O)c1ccsc1NC(=O)c1ccc(C(=O)N2CCCCC2)c(F)c1 [Compound 24f]")
"186 to 187 °C"

----------
# MIC per entry
Test system: M. tuberculosis H37Rv
assay-overview: MIC against replicating M. tuberculosis H37Rv, microplate Alamar blue assay (MABA)
Assay type: cell-based
run-conditions: Mycobacterium tuberculosis, H37RV, against M. tuberculosis H37Rv; Tables 1-3; read-out: MIC
endpoint-label: MIC

>>> measured_result("Cc1cc(C)nc(NC(=O)c2ccsc2NC(=O)c2ccc(C(=O)N3CCCCC3)cc2)n1 [Compound 25p]")
"> 32 µg/mL"
>>> measured_result("Cc1cnc(NC(=O)c2ccsc2NC(=O)c2ccc(C(=O)N3CCCCC3)cc2)cn1 [Compound 25m]")
"> 32 µg/mL"
>>> measured_result("COC(=O)N1CCN(C(=O)c2ccsc2NC(=O)c2ccc(C(=O)N3CCCCC3)cc2)CC1 [Compound 25g]")
"> 32 µg/mL"
>>> measured_result("NC(=O)c1ccsc1NC(=O)c1ccc(C(=O)N2CCCCC2)cc1 [Compound 25d]")
"> 32 µg/mL"

Reference source: paper PMC8154581
